tested on: LOX IMVI melanoma; experiment: NCI tumour cell line growth inhibition, 48 h; in the data active = GI50 below about 0.43 µM; inactive = the rest
Can you answer with just one of these options? Y (active), N (inactive)

| compound | class_name |
| --- | --- |
| CC(C)[C@@H]1CC[C@]2(CO2)[C@@H]2C(=O)OCC(C(=O)O)=C[C@H]21 | Y |
| N#CC(C#N)=C/C=C(\Sc1ccc(Cl)cc1)c1ccc(F)cc1 | Y |
| O=[N+]([O-])c1cccc2nc3ccccc3c(NCCCCCNc3c4ccccc4nc4cccc([N+](=O)[O-])c34)c12 | Y |
| CCSCC1CC(O)(c2ccccc2)C(c2ccccc2)C(c2ccc(F)cc2)O1 (stereo not given) | N |

Now consider the entry below.
Call for entry "Cc1cc(Br)c(NC(=O)c2c(-c3c(Cl)cccc3Cl)noc2C)c(Br)c1" :
N

Cited source for all entries: PubChem BioAssay (NCI)
